# SYSTEM TESTED: Cannabinoid receptor 2 (Homo sapiens, UniProt P34972, V113M)
# Sequence (P34972 whole entry V113M): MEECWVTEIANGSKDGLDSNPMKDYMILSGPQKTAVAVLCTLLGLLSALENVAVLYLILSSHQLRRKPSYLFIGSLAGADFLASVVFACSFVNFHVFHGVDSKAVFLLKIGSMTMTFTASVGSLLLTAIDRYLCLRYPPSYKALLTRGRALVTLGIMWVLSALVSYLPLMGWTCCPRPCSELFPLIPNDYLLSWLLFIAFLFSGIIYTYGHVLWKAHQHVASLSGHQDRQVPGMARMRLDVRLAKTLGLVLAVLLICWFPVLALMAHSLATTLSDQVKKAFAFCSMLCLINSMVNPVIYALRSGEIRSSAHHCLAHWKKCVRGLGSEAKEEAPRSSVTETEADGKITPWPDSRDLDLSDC
# EXPERIMENT DESCRIPTION: Partial agonist activity at CBR2 V1133.32M mutant (unknown origin) expressed in HEK293T assessed as increase in picometer shifts of reflected light wavelengths in presence of cannabidiol by DMR assay
# Format: functional, cell-based
REPORTED METRIC: EC50 (nM)
Give bare numbers, in nM.

[ask] Answer with the recorded EC50 for the compound listed here: `CCCC(C)(C)c1cc(O)c2c(c1)OC(C)(C)[C@@H]1CC=C(C)C[C@@H]21`
[reply] 398

----------
# SYSTEM TESTED: Cannabinoid receptor 2 (Homo sapiens, UniProt P34972, S285L)
# Sequence (P34972 whole entry S285L): as the sequence (P34972 whole entry V113M) above, with M113V, S285L counted along it
# EXPERIMENT DESCRIPTION: Partial agonist activity at CBR2 S2857.39L mutant (unknown origin) stably expressed in HEK293T assessed as decrease in forskolin induced cAMP level preincubated for 15 mins followed by forskolin addition incubated for 15 mins in presence of cannabidiol by HTRF assay
# Format: functional, cell-based
REPORTED METRIC: pEC50
Answers are plain numbers, as −log10 of the molar value.

[ask] Kindly indicate its recorded pEC50. Item: `CCCC(C)(C)c1cc(O)c2c(c1)OC(C)(C)[C@@H]1CC=C(C)C[C@@H]21`
[reply] 7.40
